# MEASURED_ON: recombinant human OX40 (Acro Biosystems, cat. no. OXO-H5224) (human) (UniProt P43489)
# Sequence (P43489 29-216 limits assumed): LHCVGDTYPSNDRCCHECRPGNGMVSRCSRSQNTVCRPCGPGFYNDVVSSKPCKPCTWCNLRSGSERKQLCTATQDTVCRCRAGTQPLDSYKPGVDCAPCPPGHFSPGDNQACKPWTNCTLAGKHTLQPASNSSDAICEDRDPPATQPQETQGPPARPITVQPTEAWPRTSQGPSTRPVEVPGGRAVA
# TEST_NAME: BLI cross-block; competitor (immobilized 1st Ab): IgG1-CD134-007
Let's look at some binders and their measured corrected association response.
Give just the number in nm; leave the unit off.

BINDER	UNIT_NAME	OBS_VALUE
IgG1-CD134-RG7888 (antibody, INN chains, looked up, V domains shown, IgG1) VH: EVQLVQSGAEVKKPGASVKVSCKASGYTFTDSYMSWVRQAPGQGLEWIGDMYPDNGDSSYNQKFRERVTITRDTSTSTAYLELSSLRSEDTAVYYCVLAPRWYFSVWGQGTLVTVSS VL: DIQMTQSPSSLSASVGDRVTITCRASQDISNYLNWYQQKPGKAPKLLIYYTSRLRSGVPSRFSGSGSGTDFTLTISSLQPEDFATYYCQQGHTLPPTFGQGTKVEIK	nm	0.47

In plain terms, IgG1-CD134-GBR830 (antibody, INN chains, looked up, V domains shown, IgG1) VH: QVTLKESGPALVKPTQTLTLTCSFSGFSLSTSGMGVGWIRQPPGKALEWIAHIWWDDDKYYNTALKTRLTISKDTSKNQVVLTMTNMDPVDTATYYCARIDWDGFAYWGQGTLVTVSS VL: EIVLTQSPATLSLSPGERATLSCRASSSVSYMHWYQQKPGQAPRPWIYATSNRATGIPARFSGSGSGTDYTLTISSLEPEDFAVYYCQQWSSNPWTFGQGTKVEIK has a documented corrected association response of 0.07

In plain terms, IgG1-CD134-MEDI0562 (antibody, INN chains, looked up, V domains shown, IgG1) VH: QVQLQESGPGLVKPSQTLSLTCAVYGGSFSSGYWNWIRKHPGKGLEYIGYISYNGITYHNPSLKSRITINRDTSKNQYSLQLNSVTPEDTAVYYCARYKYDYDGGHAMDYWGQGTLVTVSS VL: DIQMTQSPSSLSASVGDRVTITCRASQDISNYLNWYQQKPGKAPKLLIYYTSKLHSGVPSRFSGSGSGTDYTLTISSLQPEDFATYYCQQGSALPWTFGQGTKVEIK has a documented corrected association response of 1.14

In plain terms, IgG1-CD134-ABBV368 (antibody, INN chains, looked up, V domains shown, IgG1) VH: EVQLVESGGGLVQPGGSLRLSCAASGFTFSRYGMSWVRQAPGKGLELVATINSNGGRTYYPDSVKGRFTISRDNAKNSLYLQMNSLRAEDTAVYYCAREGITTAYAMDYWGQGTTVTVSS VL: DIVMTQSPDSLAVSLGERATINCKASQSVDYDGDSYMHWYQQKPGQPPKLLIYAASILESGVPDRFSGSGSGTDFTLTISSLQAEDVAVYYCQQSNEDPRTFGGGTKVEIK has a documented corrected association response of 0
